MEASURED ON: T1, rabbit LOX1-(FlagHis) extracellular domain (rabbit, UniProt Q9XTA8 55-274)
T1 construct: extracellular domain
MEASUREMENT PROTOCOL: IgG binding ELISA on coated antigen, europium anti-human IgG detection
READOUT KIND: binding result

LX5140092_N>D IgG1-TM (antibody, V domains shown, Whole human IgG1-TM; Heavy chain N96D (Kabat) variant of LX5140092; also called LX5140092_D) VH: QVQLVQSGAEVKKPGASVKVSCKVSGYTLTELSMHWVRQAPGKGLEWMGGFDPEDWKYHLSQKFQGRVTMTEDTSTDTAYMELSSLRSEDTAVYYCATPDGTHQGGVRGWDYYYGMDVWGQGTTVTVSS VL: QSVVTQPPSVSGAPGQRVTISCTGSSSNIGAGYDVHWYQQLPGTAPKLLIYGNSNRPSGVPDRFSGSKSGTSASLAITGLQAEDEADYYCQSYDSSLSGWVFGGGTKLTVL; binds
